tested on: phosphorylation of Chk1 (Ser 345) in HT29 colon adenocarcinoma cells; experiment: pCHK1 cellular assay; assay type: cell-based; conditions: Homo sapiens, HT-29, hydroxyurea 3 mM, 4 h
# maps each entry to its IC50

compound: C[C@@H]1COCCN1c1cc(-c2ccnc3[nH]ccc23)c2nn(C)c(-c3cc[nH]n3)c2n1 [Compound 16]
IC50: 1000 to 10000 nM
--
compound: Cc1nn(C)cc1-c1cc(N2CCOC[C@H]2C)nc2c(-c3cc[nH]n3)nn(C)c12 [Compound 19]
IC50: 10 to 100 nM
--
compound: CNC(=O)c1cc(N2CCOC[C@H]2C)nc2c(-c3cc[nH]n3)n[nH]c12 [Compound 28]
IC50: 100 to 1000 nM
--
compound: C[C@@H]1COCCN1c1cc(C2CCS(=O)(=O)CC2)c2c(n1)c(-c1ccn[nH]1)nn2C [Compound 82]
IC50: 100 to 1000 nM
--
compound: Cc1cc(S(C)(=O)=O)ccc1-c1cc(N2CCOC[C@H]2C)nc2c(-c3cc[nH]n3)nn(C)c12 [Compound 50]
IC50: < 10 nM
--
compound: C[C@@H]1COCCN1c1cc(C(C)(C)O)c2c(n1)c(-c1cc[nH]n1)nn2C [Compound 25]
IC50: 10 to 100 nM
--
compound: C[C@@H]1COCCN1c1cc(C2CCOC2)c2c(n1)c(-c1ccn[nH]1)nn2C (stereo partly shown) [Compound 70]
IC50: 10 to 100 nM

---

biological target: ATR/ATRIP (Homo sapiens (Human)); test: ATR/ATRIP kinase assay (TR-FRET, p53 Ser15 phosphorylation); type: biochemical; details: 0.5 μM ATP, 50 nM p53
Sequence (Q13535 whole entry): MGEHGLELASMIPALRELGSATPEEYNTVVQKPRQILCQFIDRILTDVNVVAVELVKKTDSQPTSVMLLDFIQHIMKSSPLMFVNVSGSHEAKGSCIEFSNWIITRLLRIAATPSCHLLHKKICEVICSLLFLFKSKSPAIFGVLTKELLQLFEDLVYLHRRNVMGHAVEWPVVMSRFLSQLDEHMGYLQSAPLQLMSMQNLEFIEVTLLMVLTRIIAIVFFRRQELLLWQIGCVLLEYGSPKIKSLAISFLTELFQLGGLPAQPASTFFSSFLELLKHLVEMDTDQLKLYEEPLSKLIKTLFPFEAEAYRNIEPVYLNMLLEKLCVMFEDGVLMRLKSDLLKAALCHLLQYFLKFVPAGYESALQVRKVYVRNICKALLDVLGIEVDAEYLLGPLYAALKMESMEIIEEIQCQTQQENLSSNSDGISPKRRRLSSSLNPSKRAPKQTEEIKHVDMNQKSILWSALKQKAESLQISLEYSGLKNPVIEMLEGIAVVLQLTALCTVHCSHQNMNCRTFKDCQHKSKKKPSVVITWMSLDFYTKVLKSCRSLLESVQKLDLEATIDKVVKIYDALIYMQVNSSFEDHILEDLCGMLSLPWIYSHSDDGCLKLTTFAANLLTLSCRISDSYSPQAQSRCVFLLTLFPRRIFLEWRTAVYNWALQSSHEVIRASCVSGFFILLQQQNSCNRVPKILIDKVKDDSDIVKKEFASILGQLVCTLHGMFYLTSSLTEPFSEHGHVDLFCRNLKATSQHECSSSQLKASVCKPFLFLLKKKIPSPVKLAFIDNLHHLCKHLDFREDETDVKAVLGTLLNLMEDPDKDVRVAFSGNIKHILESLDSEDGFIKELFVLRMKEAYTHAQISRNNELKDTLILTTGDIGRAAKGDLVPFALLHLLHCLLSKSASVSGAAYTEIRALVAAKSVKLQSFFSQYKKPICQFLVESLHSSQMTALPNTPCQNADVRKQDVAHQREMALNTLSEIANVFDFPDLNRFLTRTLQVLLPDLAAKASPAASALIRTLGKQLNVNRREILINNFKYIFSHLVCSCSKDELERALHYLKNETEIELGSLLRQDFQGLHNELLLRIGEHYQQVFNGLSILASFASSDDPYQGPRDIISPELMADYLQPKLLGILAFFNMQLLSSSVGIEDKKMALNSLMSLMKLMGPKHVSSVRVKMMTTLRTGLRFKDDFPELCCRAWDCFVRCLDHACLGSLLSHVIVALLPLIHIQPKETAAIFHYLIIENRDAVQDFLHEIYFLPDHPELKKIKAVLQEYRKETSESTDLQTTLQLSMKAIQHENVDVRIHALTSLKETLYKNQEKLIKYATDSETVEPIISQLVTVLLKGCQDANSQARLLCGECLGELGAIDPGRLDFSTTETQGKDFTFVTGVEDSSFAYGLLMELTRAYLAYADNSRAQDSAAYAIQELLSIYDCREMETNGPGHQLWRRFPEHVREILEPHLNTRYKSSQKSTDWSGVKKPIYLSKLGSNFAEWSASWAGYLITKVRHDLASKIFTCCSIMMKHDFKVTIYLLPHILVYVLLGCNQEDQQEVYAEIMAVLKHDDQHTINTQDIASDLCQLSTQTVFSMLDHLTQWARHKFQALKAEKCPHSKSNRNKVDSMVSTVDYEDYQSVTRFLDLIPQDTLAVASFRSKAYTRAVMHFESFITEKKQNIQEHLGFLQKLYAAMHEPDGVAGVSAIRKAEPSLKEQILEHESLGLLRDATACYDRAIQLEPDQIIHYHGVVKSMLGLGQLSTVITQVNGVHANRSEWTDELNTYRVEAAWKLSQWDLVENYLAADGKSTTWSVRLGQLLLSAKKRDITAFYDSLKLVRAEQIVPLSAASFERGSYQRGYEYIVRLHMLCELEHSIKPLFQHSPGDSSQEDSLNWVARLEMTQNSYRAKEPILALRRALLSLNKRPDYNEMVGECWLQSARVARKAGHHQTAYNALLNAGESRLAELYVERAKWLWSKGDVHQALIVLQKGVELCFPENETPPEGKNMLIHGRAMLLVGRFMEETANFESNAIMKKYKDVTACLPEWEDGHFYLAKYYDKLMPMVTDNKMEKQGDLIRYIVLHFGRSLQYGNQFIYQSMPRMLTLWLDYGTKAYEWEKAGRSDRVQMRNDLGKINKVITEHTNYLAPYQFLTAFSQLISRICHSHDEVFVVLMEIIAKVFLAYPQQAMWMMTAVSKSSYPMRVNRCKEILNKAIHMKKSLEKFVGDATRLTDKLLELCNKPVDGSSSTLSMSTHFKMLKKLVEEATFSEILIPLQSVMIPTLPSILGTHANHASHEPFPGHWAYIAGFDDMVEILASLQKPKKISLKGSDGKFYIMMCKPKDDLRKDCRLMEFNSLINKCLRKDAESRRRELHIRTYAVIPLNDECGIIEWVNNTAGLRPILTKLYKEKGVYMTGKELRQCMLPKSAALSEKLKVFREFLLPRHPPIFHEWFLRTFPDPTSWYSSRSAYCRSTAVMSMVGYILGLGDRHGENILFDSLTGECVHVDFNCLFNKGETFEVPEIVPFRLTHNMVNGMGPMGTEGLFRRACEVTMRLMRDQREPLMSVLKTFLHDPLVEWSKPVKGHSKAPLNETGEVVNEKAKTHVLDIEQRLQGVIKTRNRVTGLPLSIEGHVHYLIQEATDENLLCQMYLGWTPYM
Sequence (Q8WXE1 whole entry partner): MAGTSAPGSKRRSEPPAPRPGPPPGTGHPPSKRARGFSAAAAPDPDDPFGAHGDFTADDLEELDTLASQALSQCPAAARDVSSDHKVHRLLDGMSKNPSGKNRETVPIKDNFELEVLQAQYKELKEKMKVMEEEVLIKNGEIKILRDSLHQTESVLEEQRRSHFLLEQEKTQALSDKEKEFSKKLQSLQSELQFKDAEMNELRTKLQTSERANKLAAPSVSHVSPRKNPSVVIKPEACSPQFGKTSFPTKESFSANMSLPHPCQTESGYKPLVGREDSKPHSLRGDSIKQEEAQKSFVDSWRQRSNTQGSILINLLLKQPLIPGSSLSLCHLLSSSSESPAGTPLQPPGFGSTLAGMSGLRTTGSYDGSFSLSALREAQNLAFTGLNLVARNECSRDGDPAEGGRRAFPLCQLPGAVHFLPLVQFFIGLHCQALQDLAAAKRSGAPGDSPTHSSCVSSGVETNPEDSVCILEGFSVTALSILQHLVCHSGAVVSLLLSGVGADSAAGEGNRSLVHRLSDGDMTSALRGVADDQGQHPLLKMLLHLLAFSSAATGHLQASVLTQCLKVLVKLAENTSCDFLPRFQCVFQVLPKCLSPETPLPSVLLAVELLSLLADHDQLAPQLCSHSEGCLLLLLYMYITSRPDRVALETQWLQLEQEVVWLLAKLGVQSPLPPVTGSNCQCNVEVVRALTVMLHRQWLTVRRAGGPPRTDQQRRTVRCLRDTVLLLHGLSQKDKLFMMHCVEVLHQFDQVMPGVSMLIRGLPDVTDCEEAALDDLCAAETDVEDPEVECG
pIC50: −log10 of the molar value.

molecular.string: CC(C)n1nc(-c2cc[nH]n2)c2nc(N3CCOC[C@H]3C)ccc21
pIC50: 7.55
//
molecular.string: C[C@@H]1COCCN1c1cc(-c2cccc(C#N)c2)c2c(n1)c(-c1cc[nH]n1)nn2C
pIC50: 8.70
//
molecular.string: Cc1ccccc1-c1cc(N2CCOC[C@H]2C)nc2c(-c3cc[nH]n3)n[nH]c12
pIC50: 9.30
//
molecular.string: Cc1ccnc(C)c1-c1cc(N2CCOC[C@H]2C)nc2c(-c3cc[nH]n3)nn(C)c12
pIC50: 8.48
//
molecular.string: C[C@@H]1COCCN1c1cc(-c2cccc(S(C)(=O)=O)c2)c2c(n1)c(-c1ccn[nH]1)nn2C
pIC50: 7.55
//
molecular.string: C[C@@H]1COCCN1c1cc(O)c2c(n1)c(-c1ccn[nH]1)nn2C
pIC50: 5.74
//
molecular.string: C[C@@H]1COCCN1c1cc(-c2ccn(CCO)n2)c2c(n1)c(-c1cc[nH]n1)nn2C
pIC50: 8.10
//
molecular.string: CNC(=O)c1cc(N2CCOC[C@H]2C)nc2c(-c3cc[nH]n3)nn(C)c12
pIC50: 7.48

---

system: phosphorylation of Chk1 (Ser 345) in HT29 colon adenocarcinoma cells; test: pCHK1 cellular assay; assay type: cell-based; settings: Homo sapiens, HT-29, hydroxyurea 3 mM, 4 h

compound: C[C@@H]1COCCN1c1ccc2c(n1)c(-c1cc[nH]n1)nn2-c1ccc(S(C)(=O)=O)cc1
IC50: 1000 to 10000 nM

compound: Cc1cccnc1-c1cc(N2CCOC[C@H]2C)nc2c(-c3cc[nH]n3)nn(C)c12
IC50: 1000 to 10000 nM

compound: C[C@@H]1COCCN1c1ccc2c(n1)c(-c1cc[nH]n1)nn2CCc1ccncc1
IC50: 1000 to 10000 nM

compound: C[C@@H]1COCCN1c1cc(-c2cccc(S(C)(=O)=O)c2)c2c(n1)c(-c1ccn[nH]1)nn2C
IC50: 100 to 1000 nM

compound: Cc1nc(S(C)(=O)=O)ccc1-c1cc(N2CCOC[C@H]2C)nc2c(-c3cc[nH]n3)n[nH]c12
IC50: 100 to 1000 nM

compound: C[C@@H]1COCCN1c1ccc2c(n1)c(-c1cc[nH]n1)nn2-c1ccc(C#N)cc1
IC50: 1000 to 10000 nM

compound: Cc1nc([S+](C)[O-])ccc1-c1cc(N2CCOC[C@H]2C)nc2c(-c3cc[nH]n3)nn(C)c12 (some centres unmarked)
IC50: < 10 nM

compound: C[C@@H]1COCCN1c1ccc2c(n1)c(-c1cc[nH]n1)nn2Cc1cccnc1
IC50: 1000 to 10000 nM

---

target: Kv11.1 (hERG) ion channel (Homo sapiens (Human), UniProt Q12809); assay: Kv11.1 (hERG) ion channel activity, whole cell patch clamp in HEK293; conditions: heading: hERG Ki; HEK293 cells stably expressing hERG, patch clamp
Sequence (Q12809 whole entry): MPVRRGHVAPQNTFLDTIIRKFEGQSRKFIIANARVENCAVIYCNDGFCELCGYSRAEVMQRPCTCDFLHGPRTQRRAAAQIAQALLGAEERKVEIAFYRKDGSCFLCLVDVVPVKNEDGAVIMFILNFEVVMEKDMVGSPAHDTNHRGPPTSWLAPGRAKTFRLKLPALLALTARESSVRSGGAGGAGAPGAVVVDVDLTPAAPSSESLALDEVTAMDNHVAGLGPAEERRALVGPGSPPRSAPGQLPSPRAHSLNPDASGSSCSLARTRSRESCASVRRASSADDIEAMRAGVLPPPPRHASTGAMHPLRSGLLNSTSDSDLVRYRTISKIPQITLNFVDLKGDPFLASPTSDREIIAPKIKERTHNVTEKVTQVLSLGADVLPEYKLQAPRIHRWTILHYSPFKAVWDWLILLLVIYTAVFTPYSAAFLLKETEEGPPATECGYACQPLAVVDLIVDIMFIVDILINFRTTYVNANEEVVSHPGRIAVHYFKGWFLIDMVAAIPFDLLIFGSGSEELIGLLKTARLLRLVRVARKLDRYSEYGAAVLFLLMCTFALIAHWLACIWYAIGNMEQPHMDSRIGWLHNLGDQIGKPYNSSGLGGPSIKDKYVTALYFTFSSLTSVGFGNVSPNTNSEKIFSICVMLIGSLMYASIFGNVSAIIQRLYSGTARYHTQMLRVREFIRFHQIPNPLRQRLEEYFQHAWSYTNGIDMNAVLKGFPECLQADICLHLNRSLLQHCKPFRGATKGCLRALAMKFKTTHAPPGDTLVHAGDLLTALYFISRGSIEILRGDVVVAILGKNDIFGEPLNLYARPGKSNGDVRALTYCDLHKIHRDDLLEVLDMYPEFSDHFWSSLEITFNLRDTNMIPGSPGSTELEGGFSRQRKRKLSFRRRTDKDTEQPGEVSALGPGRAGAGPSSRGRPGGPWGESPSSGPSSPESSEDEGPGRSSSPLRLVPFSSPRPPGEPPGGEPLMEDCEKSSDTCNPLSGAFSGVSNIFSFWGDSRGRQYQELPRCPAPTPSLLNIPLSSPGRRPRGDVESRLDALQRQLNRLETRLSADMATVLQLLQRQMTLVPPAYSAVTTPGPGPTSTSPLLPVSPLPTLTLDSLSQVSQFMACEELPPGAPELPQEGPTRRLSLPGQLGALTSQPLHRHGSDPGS
property.measured: Ki

molecule: Cc1nc([S+](C)[O-])ccc1-c1cc(N2CCOC[C@H]2C)nc2c(-c3cc[nH]n3)nn(C)c12 (stereo partly drawn)
tested.target: Kv11.1 (hERG) ion channel (Homo sapiens (Human), UniProt Q12809)
property.measured: Ki
recorded.result: > 10 µM

molecule: C[C@@H]1COCCN1c1cc(C2CCOCC2)c2c(n1)c(-c1ccn[nH]1)nn2C
tested.target: Kv11.1 (hERG) ion channel (Homo sapiens (Human), UniProt Q12809)
property.measured: Ki
recorded.result: > 10 µM

molecule: C[C@@H]1COCCN1c1cc([C@@H]2CCCOC2)c2c(n1)c(-c1ccn[nH]1)nn2C
tested.target: Kv11.1 (hERG) ion channel (Homo sapiens (Human), UniProt Q12809)
property.measured: Ki
recorded.result: > 30 µM

molecule: C[C@@H]1COCCN1c1cc(-c2ccn(CCF)n2)c2c(n1)c(-c1cc[nH]n1)nn2C
tested.target: Kv11.1 (hERG) ion channel (Homo sapiens (Human), UniProt Q12809)
property.measured: Ki
recorded.result: > 10 µM

molecule: C[C@@H]1COCCN1c1cc(-c2ccnn2CCF)c2c(n1)c(-c1cc[nH]n1)nn2C
tested.target: Kv11.1 (hERG) ion channel (Homo sapiens (Human), UniProt Q12809)
property.measured: Ki
recorded.result: > 10 µM

molecule: Cc1ccccc1-c1cc(N2CCOC[C@H]2C)nc2c(-c3cc[nH]n3)n[nH]c12
tested.target: Kv11.1 (hERG) ion channel (Homo sapiens (Human), UniProt Q12809)
property.measured: Ki
recorded.result: > 10 µM

molecule: C[C@@H]1COCCN1c1cc(C2=CCOCC2)c2c(n1)c(-c1cc[nH]n1)nn2C
tested.target: Kv11.1 (hERG) ion channel (Homo sapiens (Human), UniProt Q12809)
property.measured: Ki
recorded.result: > 10 µM

molecule: C[C@@H]1COCCN1c1cc(-c2ccc(S(C)(=O)=O)cc2)c2c(n1)c(-c1cc[nH]n1)nn2C
tested.target: Kv11.1 (hERG) ion channel (Homo sapiens (Human), UniProt Q12809)
property.measured: Ki
recorded.result: > 10 µM

molecule: Cc1ccccc1-c1cc(N2CCOC[C@H]2C)nc2c(-c3ccn[nH]3)nn(C)c12
tested.target: Kv11.1 (hERG) ion channel (Homo sapiens (Human), UniProt Q12809)
property.measured: Ki
recorded.result: > 10 µM

molecule: Cc1ncccc1-c1cc(N2CCOC[C@H]2C)nc2c(-c3cc[nH]n3)nn(C)c12
tested.target: Kv11.1 (hERG) ion channel (Homo sapiens (Human), UniProt Q12809)
property.measured: Ki
recorded.result: > 10 µM

molecule: C[C@@H]1COCCN1c1cc([C@H]2CCCOC2)c2c(n1)c(-c1ccn[nH]1)nn2C
tested.target: Kv11.1 (hERG) ion channel (Homo sapiens (Human), UniProt Q12809)
property.measured: Ki
recorded.result: > 30 µM

molecule: CC(C)n1cc(-c2cc(N3CCOC[C@H]3C)nc3c(-c4cc[nH]n4)nn(C)c23)cn1
tested.target: Kv11.1 (hERG) ion channel (Homo sapiens (Human), UniProt Q12809)
property.measured: Ki
recorded.result: > 10 µM

molecule: Cc1ccc(-c2cc(N3CCOC[C@H]3C)nc3c(-c4cc[nH]n4)nn(C)c23)cn1
tested.target: Kv11.1 (hERG) ion channel (Homo sapiens (Human), UniProt Q12809)
property.measured: Ki
recorded.result: > 30 µM

molecule: Cc1nn(C)cc1-c1cc(N2CCOC[C@H]2C)nc2c(-c3cc[nH]n3)nn(C)c12
tested.target: Kv11.1 (hERG) ion channel (Homo sapiens (Human), UniProt Q12809)
property.measured: Ki
recorded.result: > 10 µM

molecule: C[C@@H]1COCCN1c1cc(-c2ccncc2F)c2c(n1)c(-c1cc[nH]n1)nn2C
tested.target: Kv11.1 (hERG) ion channel (Homo sapiens (Human), UniProt Q12809)
property.measured: Ki
recorded.result: > 10 µM
